This section presents binders with their documented log10 Kd values.
Biological target: T1, EsCas13d, nuclease-dead (Eubacterium siraeum, UniProt B0MS50, R295A;H300A;R849A;H854A)
T1 sequence: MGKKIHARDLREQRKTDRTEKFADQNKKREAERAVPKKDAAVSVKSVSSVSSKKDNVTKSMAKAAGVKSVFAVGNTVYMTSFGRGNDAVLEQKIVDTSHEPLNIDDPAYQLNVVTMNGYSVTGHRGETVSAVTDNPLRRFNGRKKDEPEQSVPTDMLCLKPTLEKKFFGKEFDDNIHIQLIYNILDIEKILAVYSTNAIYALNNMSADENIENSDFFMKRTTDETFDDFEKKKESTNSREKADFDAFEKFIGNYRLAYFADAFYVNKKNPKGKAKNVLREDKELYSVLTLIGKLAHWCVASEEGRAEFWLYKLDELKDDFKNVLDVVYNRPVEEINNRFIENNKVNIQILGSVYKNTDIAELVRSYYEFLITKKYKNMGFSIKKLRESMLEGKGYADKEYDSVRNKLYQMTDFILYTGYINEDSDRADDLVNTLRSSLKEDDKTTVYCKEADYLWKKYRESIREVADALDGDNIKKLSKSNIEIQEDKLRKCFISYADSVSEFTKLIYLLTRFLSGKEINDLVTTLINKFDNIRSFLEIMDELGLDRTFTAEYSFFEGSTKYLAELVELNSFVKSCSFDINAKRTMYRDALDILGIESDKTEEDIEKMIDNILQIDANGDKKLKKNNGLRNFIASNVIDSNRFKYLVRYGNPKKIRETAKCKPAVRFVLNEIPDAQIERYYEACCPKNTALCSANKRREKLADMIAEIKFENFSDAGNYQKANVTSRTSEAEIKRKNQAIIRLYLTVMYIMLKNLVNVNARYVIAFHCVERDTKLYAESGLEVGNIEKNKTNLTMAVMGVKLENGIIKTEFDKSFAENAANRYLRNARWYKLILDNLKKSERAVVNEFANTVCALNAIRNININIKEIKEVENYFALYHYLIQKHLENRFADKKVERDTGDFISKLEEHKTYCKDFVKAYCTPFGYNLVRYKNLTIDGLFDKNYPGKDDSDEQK
Test: crRNA (strand 1, pre-loaded); Mg2+; 40 mM Tris-HCl pH 7.5, 150 mM NaCl, 6 mM MgCl2, 1 mM DTT, 0.1% Tween-20, 0.2 mg/ml BSA; 25 C; 10 min per concentration, then washed
Settings: tags: His6-TwinStrep-SUMO cleaved; N-terminal SNAP kept (SNAP-Surface 488); label: 3' end held by stalled T7 RNA polymerase
PARAMETER MEASURED: log10 Kd (log10 of the value in nM)

- BINDER: "target 2 MT 5'PFS AAG 3'PFS CGA (mixed) RNA 1: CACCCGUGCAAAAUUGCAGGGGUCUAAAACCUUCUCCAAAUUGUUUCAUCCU RNA 2: GGGAAUGGAUCCACAUCUACGAAUUCAAGAGGAUGAAACAAUUUGGAGAAGCGAAGAUCGGAAGAGCACACGU"
  log10 Kd: 0.65
- BINDER: "target 3 G4A,C6G (mixed) RNA 1: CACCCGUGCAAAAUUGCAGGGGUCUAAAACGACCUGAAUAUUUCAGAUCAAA RNA 2: GGGAAUGGAUCCACAUCUACGAAUUCGUUUUUGAUCUGAAAUAUUGAAGUCUGCAGAUCGGAAGAGCACACGU"
  log10 Kd: 1.62
- BINDER: "target 1 insC 3' of 22,insA 3' of 10 (mixed) RNA 1: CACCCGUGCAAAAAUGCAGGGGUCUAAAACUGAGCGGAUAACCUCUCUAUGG RNA 2: GGGAAUGGAUCCACAUCUACGAAUUCGUACCCAUAGAGAGGUUAAUCCGCUCACCGAGAUCGGAAGAGCACACGU"
  log10 Kd: 1.45
- BINDER: "target 1 MT 5'PFS GGC 3'PFS AAC (mixed) RNA 1: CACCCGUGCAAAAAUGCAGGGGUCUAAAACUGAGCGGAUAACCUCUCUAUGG RNA 2: GGGAAUGGAUCCACAUCUACGAAUUCGGCCCAUAGAGAGGUUAUCCGCUCAAACAGAUCGGAAGAGCACACGU"
  log10 Kd: 1.59
- BINDER: "target 1 insC 3' of 10,insC 3' of 8 (mixed) RNA 1: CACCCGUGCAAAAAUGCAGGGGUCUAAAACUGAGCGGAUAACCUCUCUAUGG RNA 2: GGGAAUGGAUCCACAUCUACGAAUUCGUACCAUAGAGAGGUUCAUCCCGCUCACCGAGAUCGGAAGAGCACACGU"
  log10 Kd: 1.80
- BINDER: "target 2 MT 5'PFS AUU 3'PFS AUC (mixed) RNA 1: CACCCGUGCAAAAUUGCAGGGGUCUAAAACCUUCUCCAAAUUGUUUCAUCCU RNA 2: GGGAAUGGAUCCACAUCUACGAAUUCAUUAGGAUGAAACAAUUUGGAGAAGAUCAGAUCGGAAGAGCACACGU"
  log10 Kd: 0.98
- BINDER: "target 1 C4A,U8C (mixed) RNA 1: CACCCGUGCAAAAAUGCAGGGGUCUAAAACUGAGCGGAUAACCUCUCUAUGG RNA 2: GGGAAUGGAUCCACAUCUACGAAUUCGUACCAUAGAGAGGUUACCCGAUCACCGAGAUCGGAAGAGCACACGU"
  log10 Kd: 0.72
- BINDER: "target 1 MT 5'PFS GUA 3'PFS UCG (mixed) RNA 1: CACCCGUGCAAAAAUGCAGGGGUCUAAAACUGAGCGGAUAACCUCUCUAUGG RNA 2: GGGAAUGGAUCCACAUCUACGAAUUCGUACCAUAGAGAGGUUAUCCGCUCAUCGAGAUCGGAAGAGCACACGU"
  log10 Kd: 0.93

Data origin, for the record: paper PMC10786891
